Hello, the source for this data is patent US20150238401A1, in case you need it.

System: B16 melanoma 4A5 cell
Test name: Melanogenesis inhibiting test (theophylline-induced melanine production)
Assay type: cell-based
Experimental parameters: B16 mouse melanoma 4A5, theophylline 1.0 mmol/L, 3 days culture, N=4
Procedure: As a test for a skin-lightening effect, evaluation of the action of B16 melanoma 4A5 cell on theophylline-induced melanine production was carried out on propyl-phenyl-ether derivatives of the present invention, according to the following procedure. […] (4) Thereafter, the amount of protein was determined using BCA protein assay kit (manufactured by Thermo Fisher Scientific Inc.), and the produced amount of melanine was measured by an alkali solubilizing method described below. […]
Measurement label: Judgment: sample concentration showing the melanogenesis inhibiting ratio of 40% or more

> print(dat)
                                   compound              tested.on            readout.value
1  CCOCC(O)COc1ccc(C(C)CC)cc1 (centres unmarked)  B16 melanoma 4A5 cell  ⊚ (30 to 100 μmol/L: ⊚)
2  CC(C)(C)c1ccc(OCC(O)CO)cc1 (centres unmarked)  B16 melanoma 4A5 cell      ⊚⊚ (≦30 μmol/L: ⊚⊚)
3  CCC(C)c1ccc(OCC(O)CO)cc1 (centres unmarked)  B16 melanoma 4A5 cell  ⊚ (30 to 100 μmol/L: ⊚)
4  CCOCC(O)COc1ccc(C(C)(C)C)cc1 (centres unmarked) [Example 3 (1-O-ethyl-2-hydroxy-3-(4′-tert-butylphenoxy)propy]  B16 melanoma 4A5 cell      ⊚⊚ (≦30 μmol/L: ⊚⊚)
5  CCCCCCCC(=O)OCC(COc1ccc(C(C)(C)C)cc1)OC(=O)CCCCCCC (centres unmarked)  B16 melanoma 4A5 cell      ⊚⊚ (≦30 μmol/L: ⊚⊚)
